meta.source: ChEMBL document CHEMBL1122334

Test system: Rattus norvegicus
test details: The compound was tested for hyperexcitability in rat at a dose of 20 mg/Kg
Type: functional
Reported Possible response by item:
Give the value in % but do not write % after it.

Sample records with Possible response:
| compound | readout number |
| --- | --- |
| CCCCCC(C)C(C)c1cc(O)c2c(c1)OC(C)(C)C1=C2CN(CC(=O)NC(=O)NC)CC1 (centres undefined) | 71 |
| CCCCCC(C)C(C)c1cc(O)c2c(c1)OC(C)(C)C1=C2CN(C(C)C(=O)NC(N)=O)CC1 (centres undefined) | 63 |
| CCCCCC(C)C(C)c1cc(O)c2c(c1)OC(C)(C)C1=C2CN(CC(=O)Nc2ccccc2)CC1 (centres undefined) | 0 |
| CCCCCC(C)C(C)c1cc(O)c2c(c1)OC(C)(C)C1=C2CN(CCC(N)=O)CC1 (centres undefined) | 0 |
| CNC(=O)CN1CCC2=C(C1)c1c(O)cc(C(C)CCCc3ccc(F)cc3)cc1OC2(C)C (centres undefined) | 100 |

Consider the additional compound presented here.
Problem: Give measured Possible response for C#CCN1CCC2=C(C1)c1c(O)cc(C(C)CCCc3ccc(F)cc3)cc1OC2(C)C (centres undefined) (Rattus norvegicus).
Solution: 100

* * *

Tested on: Rattus norvegicus
test details: The compound was tested for serotonin antagonism in rat at a dose of 5 mg/Kg
Type: functional
measured property: Decrease in activity (%)
Write the answer as a number in %, unit excluded.

// below: answered molecules
| molecule | Decrease in activity (%) |
| --- | --- |
| CC(CCCc1ccc(F)cc1)c1cc(O)c2c(c1)OC(C)(C)C1=C2CN(CC(=O)N(C)C)CC1 (stereo not drawn) | 11 |
| C#CCN1CCC2=C(C1)c1c(O)cc(C(C)C(C)CCCCC)cc1OC2(C)C (stereo not drawn) | 81 |

Alright, here's another molecule for you.
Problem: Tell me measured Decrease in activity for CCCCCC(C)C(C)c1cc(O)c2c(c1)OC(C)(C)C1=C2CN(CCC(N)=O)CC1 (stereo not drawn) please.
Solution: -73

* * *

Organism: Rattus norvegicus
test details: The compound was tested for analgesic activity using (RTF) tail-flick test in rat
Assay type: functional
measured property: ED50 (mg/kg)
Quick reminder: number only, in mg/kg, skip the unit.

Study these solved cases before continuing.
| molecule | result unit | readout number |
| --- | --- | --- |
| CC(CCCc1ccc(F)cc1)c1cc(O)c2c(c1)OC(C)(C)C1=C2CN(CC(=O)NC(N)=O)CC1 (centres undefined) | mg/kg | 1.6 |
| CCCCCc1cc(O)c2c(c1)OC(C)(C)[C@@H]1CCC(C)=C[C@@H]21 [DRONABINOL] | mg/kg | 27 |
| C#CCN1CCC2=C(C1)c1c(O)cc(C(C)C(C)CCCCC)cc1OC2(C)C (centres undefined) | mg/kg | 14 |

Problem: Tell me measured ED50 for C#CCN1CCC2=C(C1)c1c(O)cc(C(C)CCCc3ccc(F)cc3)cc1OC2(C)C (centres undefined) please.
Solution: 3.7

* * *

// reported Decrease in activity per item
Tested on: Rattus norvegicus
test details: The compound was tested for serotonin antagonism in rat at a dose of 5 mg/Kg
Format: functional
Reply with just the number (in %).

| molecule | Decrease in activity / % |
| --- | --- |
| CCCCCC(C)C(C)c1cc(O)c2c(c1)OC(C)(C)C1=C2CN(CC(=O)Nc2ccccc2)CC1 (centres undefined) | 3 |
| CNC(=O)CN1CCC2=C(C1)c1c(O)cc(C(C)CCCc3ccc(F)cc3)cc1OC2(C)C (centres undefined) | 6 |
| CCCCCC(C)C(C)c1cc(O)c2c(c1)OC(C)(C)C1=C2CN(CC(N)=O)CC1 (centres undefined) | 71 |
| CCCCCC(C)C(C)c1cc(O)c2c(c1)OC(C)(C)C1=C2CN(CC(=O)NC)CC1 (centres undefined) | -54 |

Problem: Determine from records and report Decrease in activity for CCCCCC(C)C(C)c1cc(O)c2c(c1)OC(C)(C)C1=C2CN(CC(=O)NC(=O)Nc2ccccc2)CC1 (centres undefined)
Solution: -56

Problem: Supply Decrease in activity value. Item: CC(CCCc1ccc(F)cc1)c1cc(O)c2c(c1)OC(C)(C)C1=C2CN(CC(=O)NCC(N)=O)CC1 (centres undefined)
Solution: -17

Problem: Consider the molecule CCCCCC(C)C(C)c1cc(O)c2c(c1)OC(C)(C)C1=C2CN(C(C)C(=O)NC(N)=O)CC1 (centres undefined) and give its recorded Decrease in activity.
Solution: 11

Problem: Please look at this molecule and report its Decrease in activity: CCCCCC(C)C(C)c1cc(O)c2c(c1)OC(C)(C)C1=C2CN(CC(=O)NC(=O)NC)CC1 (centres undefined)
Solution: 34

Problem: Check the records and state Decrease in activity for CCCCCC(C)C(C)c1cc(O)c2c(c1)OC(C)(C)C1=C2CN(CC(=O)OCC)CC1 (centres undefined)
Solution: 60

* * *

Tested on: Rattus norvegicus
test details: The compound was tested for decreasing motor activity in rat at a dose of 5 mg/Kg
Assay type: functional
measured property: Decrease in activity

| molecule | result |
| --- | --- |
| CCCCCC(C)C(C)c1cc(O)c2c(c1)OC(C)(C)C1=C2CN(CC(=O)NC(=O)NC)CC1 (stereo unspecified) | 63% |
| CCCCCC(C)C(C)c1cc(O)c2c(c1)OC(C)(C)C1=C2CN(CC(=O)OCC)CC1 (stereo unspecified) | 49% |

Problem: Report Decrease in activity under test system Rattus norvegicus for CCCCCc1cc(O)c2c(c1)OC(C)(C)[C@@H]1CCC(C)=C[C@@H]21 [DRONABINOL] .
Solution: 15%

Problem: State, for Rattus norvegicus, measured Decrease in activity of the molecule listed here: CC(CCCc1ccc(F)cc1)c1cc(O)c2c(c1)OC(C)(C)C1=C2CN(CC(=O)NCC(N)=O)CC1 (stereo unspecified)
Solution: -11%

Problem: Tell me Decrease in activity of CCCCCC(C)C(C)c1cc(O)c2c(c1)OC(C)(C)C1=C2CN(CC(=O)NC(=O)Nc2ccccc2)CC1 (stereo unspecified) when tested on Rattus norvegicus.
Solution: 37%

Problem: Quote Rattus norvegicus Decrease in activity for entry CCCCCC(C)C(C)c1cc(O)c2c(c1)OC(C)(C)C1=C2CN(CC(=O)Nc2ccccc2)CC1 (stereo unspecified) .
Solution: 4%

* * *

Test system: Rattus norvegicus
test details: The compound was tested for hyperexcitability in rat at a dose of 20 mg/Kg
Type: functional
measured property: Possible response (%)
Write the answer as a number in %, unit excluded.

Some solved cases for reference:
| compound | test system | Possible response (%) |
| --- | --- | --- |
| CC(CCCc1ccc(F)cc1)c1cc(O)c2c(c1)OC(C)(C)C1=C2CN(CC(=O)N(C)C)CC1 (stereo not drawn) | Rattus norvegicus | 10 |
| CCCCCc1cc(O)c2c(c1)OC(C)(C)[C@@H]1CCC(C)=C[C@@H]21 | Rattus norvegicus | 100 |
| CCCCCC(C)C(C)c1cc(O)c2c(c1)OC(C)(C)C1=C2CN(CC(=O)N(C)C)CC1 (stereo not drawn) | Rattus norvegicus | 13 |

Problem: Check the records and state Possible response for CC(CCCc1ccc(F)cc1)c1cc(O)c2c(c1)OC(C)(C)C1=C2CN(CC(=O)NC(N)=O)CC1 (stereo not drawn)
Solution: 90

Problem: # return recorded Possible response for input CCCCCC(C)C(C)c1cc(O)c2c(c1)OC(C)(C)C1=C2CN(CC(=O)NC(=O)Nc2ccccc2)CC1 (stereo not drawn)
Solution: 0

Problem: Write down Possible response measured for item CCCCCC(C)C(C)c1cc(O)c2c(c1)OC(C)(C)C1=C2CN(CC(=O)NC)CC1 (stereo not drawn)
Solution: 100

Problem: Give the reported value of Possible response for this record: CCCCCC(C)C(C)c1cc(O)c2c(c1)OC(C)(C)C1=C2CN(CC(N)=O)CC1 (stereo not drawn)
Solution: 79

Problem: Name the recorded Possible response of the item CC(CCCc1ccc(F)cc1)c1cc(O)c2c(c1)OC(C)(C)C1=C2CN(CC(=O)NCC(N)=O)CC1 (stereo not drawn) in your answer.
Solution: 0
